target: pooled human IgG (human IgG1, 2, 3 and 4) (human); assay: cell-based or functional assay; further: test concentration or dose not given here
Measured Enzyme Activity Endpoint Assay: Fc by item
The number alone won't do; follow it with the unit.

QUERY: Given PRT-427 (enzyme) MTITSVWTKGVTPPTPEDFRYNNEDVLHAPYVANQGWYDITKTFDGKDNLLCGAATAGNMLHWWFDQNKEEIERYLKKHPEKQKIIFNNQELFDVKAAIDTKDSQTNSKLFNYFRDKAFPNLSARQLGVMPDLVLDMFINGYYLNLGKTQSTDVNRPYQDKDKRGGIFDAVFTRGVQTTLLTARHDLKNKGLNEISDLIKQELTEGKALALSHTYANVRINHVINLWGADFDAEGNLIAIYVTDSDANASIGMKKYFVGVNANGKVAISAKKIEGDNIGAQVLGLFTLSTGQDIWQKLS , respond with its Enzyme Activity Endpoint Assay: Fc.
RESULT: 352 ng/µL

QUERY: Given PRT-394 (enzyme) MVTSVWTKGVTPPTNFTYGEDVLHAPYVANQGWYDITKTFNGKDDLLCGAATAGNMLHWWFDQNKEQIENYLKKHPEKQKINFNGEQMFDVKEAIDTKDSQLDSKLFEYFKEKAFPYLSTKHLGVFPDHVIDMFINGYRLSLTNHGPTPVKRGSKDPRGGIFDAVFTRGDQSKLLTNRHDFKEKTLKEISDLIKQELTEGKALGISHTYANVRINHVINLWGADFDAEGNLEAIYVTDSDSEASIGMKKYFVGVNSNGKVAISAKEIEEDNIGAQVLGLFTLSTGQDIWNQTN , respond with its Enzyme Activity Endpoint Assay: Fc.
RESULT: 323 ng/µL
